The reported numbers originate from the RNAGym collection of RNA variant scans (doi:10.1073/pnas.2313332121).

B1: TPR t1 (parent)
chain: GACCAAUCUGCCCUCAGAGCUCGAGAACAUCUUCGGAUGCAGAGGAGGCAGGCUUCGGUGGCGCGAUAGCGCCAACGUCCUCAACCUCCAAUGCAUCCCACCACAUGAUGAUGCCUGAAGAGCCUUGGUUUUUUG

variants of: B1; experiment: polymerase ribozyme fitness, log enrichment relative to wild type (log ratio); higher = more active; in vitro selection for triplet polymerase activity
// thresholds for polymerase ribozyme fitness (log ratio) classes: low class (below -3), middle class (-3 to below -2), high class (-2 or more)

Some solved cases for reference:
G63A G120U	high class
C22A G57U U106A A118G U133C	low class
C13U G135U	high class
C53G G135U	high class
C8U A119G U126G G127U	high class
G42A G69U C76A A121U	low class
C49A G60C G127A U131A	low class
G42U G52C U55A	middle class

# input Band of G42C G117C ?
# output low class

# input And for C56U C101G ?
# output middle class
